Biological target: UniProt P08172
Sequence (P08172 whole entry): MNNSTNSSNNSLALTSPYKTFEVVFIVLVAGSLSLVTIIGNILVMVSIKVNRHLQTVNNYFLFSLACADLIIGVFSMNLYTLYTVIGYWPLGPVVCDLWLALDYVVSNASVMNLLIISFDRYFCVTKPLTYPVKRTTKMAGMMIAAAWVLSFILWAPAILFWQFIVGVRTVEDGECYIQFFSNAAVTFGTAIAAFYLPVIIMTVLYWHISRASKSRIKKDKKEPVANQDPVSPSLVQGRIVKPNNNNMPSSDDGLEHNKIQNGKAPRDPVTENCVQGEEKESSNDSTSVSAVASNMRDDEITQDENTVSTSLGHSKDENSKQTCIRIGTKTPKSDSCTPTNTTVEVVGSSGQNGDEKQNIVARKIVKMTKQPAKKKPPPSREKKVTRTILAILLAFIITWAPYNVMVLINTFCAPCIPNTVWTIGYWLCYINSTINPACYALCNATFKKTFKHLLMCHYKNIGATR
pKi: −log10 of the molar value.
So basically: pKi at 5 or higher? That is fulfilled. Lower than 5? That is not fulfilled.

# compound, classification
records = [
    ("C[C@H]1CO[C@H](C[N+](C)(C)C)CO1.[I-] (relative stereo)", "not fulfilled"),
    ("C[C@H]1COC[C@@H](C[N+](C)(C)C)O1.[I-] (relative stereo)", "fulfilled"),
    ("C[C@@H]1OC[C@@H](C[N+](C)(C)C)OC1(C)C.[I-] (relative stereo)", "not fulfilled"),
    ("C[C@@H]1O[C@H](C[N+](C)(C)C)COC1(C)C.[I-] (relative stereo)", "not fulfilled"),
    ("CC1(C)CO[C@H](C[N+](C)(C)C)CO1.[I-]", "not fulfilled"),
    ("C[C@@H]1COC[C@@H](C[N+](C)(C)C)O1.[I-]", "fulfilled"),
    ("C[C@@H]1O[C@H](C[N+](C)(C)C)CO[C@@H]1C.[I-] (relative stereo)", "not fulfilled"),
    ("CC1(C)COC[C@@H](C[N+](C)(C)C)O1.[I-]", "not fulfilled"),
    ("C[C@@H]1OC[C@@H](C[N+](C)(C)C)O[C@@H]1C.[I-] (relative stereo)", "not fulfilled"),
    ("C[C@H]1OC[C@@H](C[N+](C)(C)C)OC1(C)C.[I-] (relative stereo)", "not fulfilled"),
    ("C[C@H]1O[C@H](C[N+](C)(C)C)COC1(C)C (relative stereo)", "not fulfilled"),
    ("C[C@H]1OC[C@@H](C[N+](C)(C)C)O[C@@H]1C.[I-] (relative stereo)", "not fulfilled"),
    ("CC1(C)OC[C@@H](C[N+](C)(C)C)OC1(C)C.[I-]", "not fulfilled"),
]

---

Quick reference for Intrinsic activity among some compounds
Target: Muscarinic acetylcholine receptor M3 (Cavia porcellus) (UniProt Q8VH26)
Sequence (Q8VH26 1-587): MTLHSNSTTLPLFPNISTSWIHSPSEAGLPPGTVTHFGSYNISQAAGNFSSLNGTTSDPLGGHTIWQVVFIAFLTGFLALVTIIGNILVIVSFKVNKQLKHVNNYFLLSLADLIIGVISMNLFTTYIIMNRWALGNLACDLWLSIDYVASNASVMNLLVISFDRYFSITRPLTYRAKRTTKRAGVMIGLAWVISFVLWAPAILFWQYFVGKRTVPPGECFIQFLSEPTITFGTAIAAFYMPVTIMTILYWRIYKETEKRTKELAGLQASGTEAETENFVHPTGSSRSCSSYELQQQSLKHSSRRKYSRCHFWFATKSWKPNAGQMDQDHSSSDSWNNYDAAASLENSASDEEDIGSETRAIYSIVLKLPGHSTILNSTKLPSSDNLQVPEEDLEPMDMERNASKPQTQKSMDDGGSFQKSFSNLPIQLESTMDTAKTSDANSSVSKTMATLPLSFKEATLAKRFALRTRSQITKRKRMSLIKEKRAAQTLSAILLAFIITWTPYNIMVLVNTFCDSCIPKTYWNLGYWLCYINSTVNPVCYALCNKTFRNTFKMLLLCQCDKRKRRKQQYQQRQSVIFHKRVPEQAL
Assay: Intrinsic activity at muscarinic M3 receptor in guinea pig ileum assessed as inhibition of electrically-stimulated muscle contraction relative to bathanecol
Type: tissue-based
measured.quantity: Intrinsic activity

# compound, test.result
rows = [
    ("C[C@H]1CO[C@H](C[N+](C)(C)C)CO1.[I-] (relative stereo)", 1),
    ("CC1(C)OC[C@@H](C[N+](C)(C)C)OC1(C)C.[I-]", 0.93),
    ("C[C@@H]1OC[C@@H](C[N+](C)(C)C)OC1(C)C.[I-] (relative stereo)", 0.66),
    ("C[C@@H]1OC[C@@H](C[N+](C)(C)C)O[C@H]1C.[I-] (relative stereo)", 0.88),
    ("CC1(C)COC[C@@H](C[N+](C)(C)C)O1.[I-]", 1.16),
    ("C[C@@H]1O[C@H](C[N+](C)(C)C)CO[C@@H]1C.[I-] (relative stereo)", 1),
    ("C[C@@H]1OC[C@@H](C[N+](C)(C)C)O[C@@H]1C.[I-] (relative stereo)", 0.85),
    ("C[C@@H]1CO[C@H](C[N+](C)(C)C)CO1.[I-] (relative stereo)", 1),
    ("C[C@H]1OC[C@@H](C[N+](C)(C)C)O[C@@H]1C.[I-] (relative stereo)", 1.18),
]

// data source = ChEMBL document CHEMBL1153096
